Assay: Solubility (excess compound shaken 1 day at room temperature, HPLC)
Type: physicochemical
Conditions: simulated gastric fluid, thermodynamic from solid, solvent 0.1M HCl, final pH in column pH of the same row (1.23-1.55)
Description: An excess of compound was added to the solvent (the type of solvent is specified in table 6) The mixture was shaken during 1 day at room temperature. The precipitate was filtered off. The concentration of the compound was measured via HPLC and is shown in the column “Solubility”.
Readout type: solubility at 1 day

Ask: Consider the molecule C[C@H](OC(=O)[C@@H](N)Cc1ccccc1)[C@H](C)n1ncn(-c2ccc(N3CCN(c4ccc(OC[C@@H]5CO[C@@](Cn6cncn6)(c6ccc(F)cc6F)O5)cc4)CC3)cc2)c1=O (relative stereo) and give its measured solubility at 1 day.
Result: > 5560 µg/mL
